- Tested on: 379773-124-R-J2-PDC complex spheroids, viability % test/control
- assay info: Anticancer human tumor 379773-124-R-J2-PDC patient-derived endometrial carcinoma cell line growth inhibition [CLK]
- condition set: second compound 0.0316 µM; first compound 3.16 µM; hits give low values
measured quantity: viability, T/C (%)
Numbers only, in %.

CC1(C)CCC(CN2CCN(c3ccc(C(=O)NS(=O)(=O)c4ccc(NCC5CCOCC5)c([N+](=O)[O-])c4)c(Oc4cnc5[nH]ccc5c4)c3)CC2)=C(c2ccc(Cl)cc2)C1 + CNC(=O)c1ccc(Nc2nc(OC3CCCC3)c3c(-c4ccc5nc(C)oc5c4)c[nH]c3n2)c(OC)c1 ... 70.9

Attention now turns to another entry.
So, CC(Nc1ccc2c(c1)OCCn1cc(N3C(=O)OCC3C(F)F)nc1-2)C(N)=O (configuration not stated) + CNC(=O)c1ccc(Nc2nc(OC3CCCC3)c3c(-c4ccc5nc(C)oc5c4)c[nH]c3n2)c(OC)c1 ? Its viability, T/C was 76.3

---

- System: 379773-124-R-J2-PDC complex spheroids, viability % test/control
- assay info: Anticancer human tumor 379773-124-R-J2-PDC cell line growth inhibition [CLK]; active = viability on the fitted dose curve at most 10% of control; inactive = the rest;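 further: compound exposure lasted seven days before the viability readout; 100% = DMSO vehicle control wells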
- condition set: second compound 0.316 µM; first compound 0.316 µM
Choose the fitting class; nothing outside 1 (yes) (active), 0 (no) (inactive) is accepted.

CC(CO)NC(=O)c1cc(-c2ccc(Cl)cc2)nn(-c2cnn(C)c2)c1=O (stereo not drawn) + CNC(=O)c1ccc(Nc2nc(OC3CCCC3)c3c(-c4ccc5nc(C)oc5c4)c[nH]c3n2)c(OC)c1 ... 0 (no)
COc1ccc([C@@H](O)c2cc(-c3ncnc4cc(N5CCOCC5)ccc34)c(F)cc2Cl)nn1 + CNC(=O)c1ccc(Nc2nc(OC3CCCC3)c3c(-c4ccc5nc(C)oc5c4)c[nH]c3n2)c(OC)c1 ... 0 (no)

Next compound, please.
Called result for Nc1ccn(C2OC(CO)C(O)C2(F)F)c(=O)n1 (stereo not drawn) + CN1CCN(c2cc(C(=O)Nc3cc4cc(-c5cnn(C)c5)ccc4cn3)ccn2)CC1
1 (yes)

---

- Tested on: 379773-124-R-J2-PDC complex spheroids, viability % test/control
- assay info: Anticancer human tumor 379773-124-R-J2-PDC cell line growth inhibition [CLK]; active = viability on the fitted dose curve at most 10% of control; inactive = the rest;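 further: compound exposure lasted seven days before the viability readout; 100% = DMSO vehicle control wells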
- condition set: second compound 3.16 µM; first compound 1 µM
// allowed return values: y (active), n (inactive)

Answered examples (2):
COc1c(OCCCN2CCOCC2)ccc2c3n(c(=NC(=O)c4cnc(N)nc4)nc12)CCN3 + CN1CCN(c2cc(C(=O)Nc3cc4cc(-c5cnn(C)c5)ccc4cn3)ccn2)CC1 ... y
O=c1[nH]cc(F)c(=O)[nH]1 + CNC(=O)c1ccc(Nc2nc(OC3CCCC3)c3c(-c4ccc5nc(C)oc5c4)c[nH]c3n2)c(OC)c1 ... n

Per the records of this test, what outcome belongs to Nc1ccccc1NC(=O)c1ccc(CNC(=O)OCc2cccnc2)cc1 + CNC(=O)c1ccc(Nc2nc(OC3CCCC3)c3c(-c4ccc5nc(C)oc5c4)c[nH]c3n2)c(OC)c1 ?
n

---

Would you kindly list viability, T/C for each of these molecules?
- Tested on: 379773-124-R-J2-PDC complex spheroids, viability % test/control
- assay info: Anticancer human tumor 379773-124-R-J2-PDC cell line growth inhibition [CLK];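 further: compound exposure lasted seven days before the viability readout; 100% = DMSO vehicle control wells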
- condition set: second compound 0.0316 µM; first compound 0.1 µM; hits give low values
One number for each entry, in %.

Sample answers from the record:
CC(=O)O[C@H]1C(=O)[C@@]2(C)[C@H]([C@H](OC(=O)c3ccccc3)[C@]3(O)C[C@H](OC(=O)[C@H](O)[C@@H](NC(=O)c4ccccc4)c4ccccc4)C(C)=C1C3(C)C)[C@]1(OC(C)=O)CO[C@@H]1C[C@@H]2O + CN1CCN(c2cc(C(=O)Nc3cc4cc(-c5cnn(C)c5)ccc4cn3)ccn2)CC1 ... 7.96
COc1cccc2c1C(=O)c1c(O)c3c(c(O)c1C2=O)CC(O)(C(=O)CO)CC3OC1CC(N)C(O)C(C)O1 (centres undefined) + CN1CCN(c2cc(C(=O)Nc3cc4cc(-c5cnn(C)c5)ccc4cn3)ccn2)CC1 ... 11.9
Nc1ccccc1NC(=O)c1ccc(CNC(=O)OCc2cccnc2)cc1 + CNC(=O)c1ccc(Nc2nc(OC3CCCC3)c3c(-c4ccc5nc(C)oc5c4)c[nH]c3n2)c(OC)c1 ... 81.9

Provide viability, T/C for all items below, preserving their order.
1. COC1C=CCC(C)C(C)S(=O)(=O)NC(=O)c2ccc3c(c2)N(CC2CCC21)CC1(CCCc2cc(Cl)ccc21)CO3 (centres undefined) + CN1CCN(c2cc(C(=O)Nc3cc4cc(-c5cnn(C)c5)ccc4cn3)ccn2)CC1
2. CC1COCCN1c1cc(C2(S(C)(=N)=O)CC2)nc(-c2ccnc3[nH]ccc23)n1 (centres undefined) + CNC(=O)c1ccc(Nc2nc(OC3CCCC3)c3c(-c4ccc5nc(C)oc5c4)c[nH]c3n2)c(OC)c1
3. CC(=O)O[C@H]1C(=O)[C@@]2(C)[C@H]([C@H](OC(=O)c3ccccc3)[C@]3(O)C[C@H](OC(=O)[C@H](O)[C@@H](NC(=O)c4ccccc4)c4ccccc4)C(C)=C1C3(C)C)[C@]1(OC(C)=O)CO[C@@H]1C[C@@H]2O + CNC(=O)c1ccc(Nc2nc(OC3CCCC3)c3c(-c4ccc5nc(C)oc5c4)c[nH]c3n2)c(OC)c1
4. CC(Nc1ccc2c(c1)OCCn1cc(N3C(=O)OCC3C(F)F)nc1-2)C(N)=O (centres undefined) + CNC(=O)c1ccc(Nc2nc(OC3CCCC3)c3c(-c4ccc5nc(C)oc5c4)c[nH]c3n2)c(OC)c1
5. CCN1CCN(Cc2ccc(Nc3ncc(F)c(-c4cc(F)c5nc(C)n(C(C)C)c5c4)n3)nc2)CC1 + CNC(=O)c1ccc(Nc2nc(OC3CCCC3)c3c(-c4ccc5nc(C)oc5c4)c[nH]c3n2)c(OC)c1
6. CCCS(=O)(=O)Nc1ccc(F)c(C(=O)c2c[nH]c3ncc(-c4ccc(Cl)cc4)cc23)c1F + CNC(=O)c1ccc(Nc2nc(OC3CCCC3)c3c(-c4ccc5nc(C)oc5c4)c[nH]c3n2)c(OC)c1

1: 97.5; 2: 83.8; 3: 12.2; 4: 72.8; 5: 76.6; 6: 81.7
